B1: HDV Ribozyme (parent)
chain: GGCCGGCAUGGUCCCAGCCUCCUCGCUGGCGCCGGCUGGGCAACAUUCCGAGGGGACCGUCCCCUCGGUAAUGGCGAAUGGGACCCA

Variants of: B1
Assay: self-cleavage, relative activity (ratio to wild type); higher = more cleavage; co-transcriptional
Use self-cleavage to assign classes; range list: LOW (below 0.2), MID (0.2 to below 0.8), HIGH (0.8 or more)

See these solved cases before continuing.
{"mutant-designation": "G39A A51C", "cat": "MID"}
{"mutant-designation": "C18A C63G", "cat": "LOW"}
{"mutant-designation": "C22U A77U", "cat": "MID"}
{"mutant-designation": "C44A G82A", "cat": "LOW"}
{"mutant-designation": "G28C G54U", "cat": "LOW"}
{"mutant-designation": "A8C C61G", "cat": "MID"}
{"mutant-designation": "G40C G74A", "cat": "LOW"}
{"mutant-designation": "C26A A71G", "cat": "HIGH"}
{"mutant-designation": "G31U U65C", "cat": "MID"}
{"mutant-designation": "A8U G55C", "cat": "HIGH"}

Query string: Which bin, given its self-cleavage, does "U69A" occupy?
Result string: HIGH

Query string: C66G G82C , same question.
Result string: LOW
